biological target: α-glucosidase (Saccharomyces cerevisiae); experiment: α-glucosidase inhibitory effect (pNPG); type: biochemical; details: synthetic peptides; PBS pH 6.8, 37 °C, 15 min pre-incubation, 30 min with pNPG, absorbance 405 nm; median (25%, 75% quartiles), at least three experiments; read-out: IC50, α-glucosidase inhibition
Where no end group is shown, it is not given here.
readout: IC50 (mM)
One number for each entry, in mM.

# IC50 (substance: AFEPLR [AFEPLR] ) is 8.69

* * *

molecular target: α-glucosidase (Saccharomyces cerevisiae, UniProt P53341)
Sequence (P53341 whole entry): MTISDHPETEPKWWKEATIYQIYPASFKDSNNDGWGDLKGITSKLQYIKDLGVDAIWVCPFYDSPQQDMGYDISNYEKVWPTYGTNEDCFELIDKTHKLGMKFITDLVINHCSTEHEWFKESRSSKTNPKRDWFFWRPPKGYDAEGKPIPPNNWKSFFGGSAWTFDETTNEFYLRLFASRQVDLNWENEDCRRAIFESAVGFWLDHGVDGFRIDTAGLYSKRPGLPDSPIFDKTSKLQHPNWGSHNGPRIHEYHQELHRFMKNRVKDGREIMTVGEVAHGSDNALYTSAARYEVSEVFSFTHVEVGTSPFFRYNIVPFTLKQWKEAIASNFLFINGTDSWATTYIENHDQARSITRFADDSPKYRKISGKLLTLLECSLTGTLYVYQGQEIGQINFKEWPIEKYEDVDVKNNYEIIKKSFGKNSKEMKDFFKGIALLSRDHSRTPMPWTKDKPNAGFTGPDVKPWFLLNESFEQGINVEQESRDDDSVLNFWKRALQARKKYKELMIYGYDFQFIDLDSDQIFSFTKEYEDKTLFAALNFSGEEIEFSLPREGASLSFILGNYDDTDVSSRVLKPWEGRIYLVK
Where a SMILES comes first, the peptide text is derived from it.
readout: pIC50
Numbers only, as −log10 of the molar value.

# pIC50 (compound: NC(=O)C[C@H](N)C(=O)N[C@@H](CC(=O)O)C(=O)N1CCC[C@H]1C(=O)N[C@@H](Cc1ccccc1)C(=O)O [NDPF] (H-NDPF-OH) ) is 2.20
